B1: DFFB (parent)
chain: TLVEAIKEQDGREVDWEYFYGLLF

Variants of: B1
TEST SUMMARY: protein stability index of a GFP-peptide fusion (GPS, HEK-293T) (PSI 1-6); higher = more stable;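 note: lentivirally expressed fusions sorted by FACS into six bins by GFP to DsRed ratio, PSI derived from sequencing read proportions per bin multiplied by bin number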
MEASUREMENT CONTEXT: c terminus: a fixed tail appended
Label rule, in plain words: protein stability index of 2 and up is MET, under 2 is NOT MET.

These solved cases illustrate the format of a correct answer.
sequence_entry="TLIEAIKEQDGREVDWEYFYGLLF [V3I]" label_value=MET
sequence_entry="TLVEAIKEQDGREVDWEDFYGLLF [Y18D]" label_value=MET

Given the entry TLVEAIKEQDGREVDWEYFYGLIF [L23I] , answer whether its protein stability index meets or surpasses 2.
MET

Given the entry TLVEAIKEQDGREVDWEYFLGLLF [Y20L] , answer whether its protein stability index meets or surpasses 2.
NOT MET

Given the entry TLVENIKEQDGREVDWEYFYGLLF [A5N] , answer whether its protein stability index meets or surpasses 2.
MET
